Data provenance is ChEMBL document CHEMBL2021890.

assay: Metabolic stability in human liver microsomes after 30 mins by LC/MS analysis; format: ADME, Microsome; settings: read-out: Stability
endpoint.name: remaining at 0.5 h (%)

In the examples that follow, each entry is paired with its recorded remaining at 0.5 h.
Cc1nc(C2CCN(C(=O)[C@@H]3CN(C(C)(C)C)C[C@H]3c3ccc(F)cc3F)CC2)n(-c2ccc(F)c(F)c2)n1 57
CC(C)(C)N1C[C@@H](C(=O)N2CCC(c3ccnn3-c3ccc(F)c(Cl)c3)CC2)[C@H](c2ccc(F)cc2F)C1 4
Cc1cc(C2CCN(C(=O)[C@@H]3CN(C(C)(C)C)C[C@H]3c3ccc(F)cc3F)CC2)n(-c2ccc(Cl)cc2Cl)n1 31

[A] Cc1nc(C2CCN(C(=O)[C@@H]3CN(C(C)(C)C)C[C@H]3c3ccc(F)cc3F)CC2)n(-c2ccc(Cl)c(C)c2)n1
[B] Cc1cc(C2CCN(C(=O)[C@@H]3CN(C(C)(C)C)C[C@H]3c3ccc(F)cc3F)CC2)n(-c2cc(Cl)ccc2Cl)n1
[C] Cc1nc(C2CCN(C(=O)[C@@H]3CNC[C@H]3c3ccc(F)cc3F)CC2)n(-c2ccc(F)c(Cl)c2)n1
Prompt: Ranking field: remaining at 0.5 h; order: falling. The reply should contain the labels ordered as requested.
Response: C, B, A
